System: MutaMouse primary hepatocytes (PHs)
experimentSummary: MutaMouse PH in vitro gene mutation assay (lacZ mutant frequency, P-Gal positive selection)
particulars: upper limit of 90% confidence interval of BMD100
We use 20 µg/mL as the dividing line for BMDU, Exponential model: on or above the line is yes (1), below is no (0).

The examples below pair each entry with its known result.
[[record]]
compound = "CCN(N=O)C(N)=O [ENU, N‐ethyl‐N‐nitrosourea]"
category = "yes (1)"

[[record]]
compound = "CC(=O)Nc1ccc2c(c1)Cc1ccccc1-2 [2‐AAF, 2‐acetylaminofluorene]"
category = "no (0)"

[[record]]
compound = "Cn1c(N)nc2ncc(-c3ccccc3)cc21 [PhIP]"
category = "no (0)"

[[record]]
compound = "CN(C)N=O [DMN, dimethylnitrosamine]"
category = "yes (1)"


Consider the record given below.
Problem: Tell me whether BMDU, Exponential model is at least 20 µg/mL here: O=C1c2ccccc2-c2ccc([N+](=O)[O-])c3cccc1c23 [3‐NBA, 3‐nitrobenzanthrone]
Solution: no (0)

###

Test system: MutaMouse primary hepatocytes (PHs)
experimentSummary: MutaMouse PH in vitro gene mutation assay (lacZ mutant frequency, P-Gal positive selection)
particulars: lower limit of 90% confidence interval of BMD100
We use 1 µg/mL as the dividing line for BMDL, Exponential model: on or above the line is 1, below is 0.

The examples below pair each entry with its known result.
[[record]]
molecule = "CCN(N=O)C(N)=O [ENU, N‐ethyl‐N‐nitrosourea]"
category = 1

[[record]]
molecule = "O=C1c2ccccc2-c2ccc([N+](=O)[O-])c3cccc1c23 [3‐NBA, 3‐nitrobenzanthrone]"
category = 0

[[record]]
molecule = "Cn1c(N)nc2ncc(-c3ccccc3)cc21 [PhIP]"
category = 1

[[record]]
molecule = "CN(C)N=O [DMN, dimethylnitrosamine]"
category = 1


Consider the record given below.
Problem: Tell me whether BMDL, Exponential model is at least 1 µg/mL here: CC(=O)Nc1ccc2c(c1)Cc1ccccc1-2 [2‐AAF, 2‐acetylaminofluorene]
Solution: 0

###

Test system: MutaMouse primary hepatocytes (PHs)
experimentSummary: MutaMouse PH in vitro gene mutation assay (lacZ mutant frequency, P-Gal positive selection)
particulars: maximum response, concentration not given
Checkbox rule: MF fold increase over control in MutaMouse PHs lower than 4 fold = label 1; MF fold increase over control in MutaMouse PHs not lower than 4 fold = label 0.

The examples below pair each entry with its known result.
[[record]]
smilesentry = "O=C1c2ccccc2-c2ccc([N+](=O)[O-])c3cccc1c23"
category = "label 1"

[[record]]
smilesentry = "CC(=O)Nc1ccc2c(c1)Cc1ccccc1-2"
category = "label 1"

[[record]]
smilesentry = "CCN(N=O)C(N)=O"
category = "label 0"

[[record]]
smilesentry = "CN(C)N=O"
category = "label 0"


Consider the record given below.
Problem: Criterion: MF fold increase over control in MutaMouse PHs strictly below 4 fold. Is it met by Cn1c(N)nc2ncc(-c3ccccc3)cc21 ?
Solution: label 1

###

Test system: MutaMouse primary hepatocytes (PHs)
experimentSummary: MutaMouse PH in vitro gene mutation assay (lacZ mutant frequency, P-Gal positive selection)
particulars: BMR 100% (twofold MF increase), PROAST covariate analysis
propertyLabel: BMD100, Hill model (µg/mL)
State just the number; it will be interpreted in µg/mL.

[[record]]
smilesentry = "O=C1c2ccccc2-c2ccc([N+](=O)[O-])c3cccc1c23"
propertylabel = "BMD100, Hill model"
reportedresult = 0.15

[[record]]
smilesentry = "CCN(N=O)C(N)=O"
propertylabel = "BMD100, Hill model"
reportedresult = 76

[[record]]
smilesentry = "CC(=O)Nc1ccc2c(c1)Cc1ccccc1-2"
propertylabel = "BMD100, Hill model"
reportedresult = 1.9

[[record]]
smilesentry = "CN(C)N=O"
propertylabel = "BMD100, Hill model"
reportedresult = 7.6


Next:
Problem: Would you mind telling me what BMD100, Hill model value was observed for Cn1c(N)nc2ncc(-c3ccccc3)cc21 ?
Solution: 2.6

###

System: MutaMouse primary hepatocytes (PHs)
experimentSummary: MutaMouse PH in vitro gene mutation assay (lacZ mutant frequency, P-Gal positive selection)
particulars: upper limit of 90% confidence interval of BMD100
Checkbox rule: BMDU, Hill model lower than 4 µg/mL = YES; BMDU, Hill model not lower than 4 µg/mL = NO.

The examples below pair each entry with its known result.
[[record]]
smilesentry = "CN(C)N=O"
category = "NO"

[[record]]
smilesentry = "Cn1c(N)nc2ncc(-c3ccccc3)cc21"
category = "NO"

[[record]]
smilesentry = "O=C1c2ccccc2-c2ccc([N+](=O)[O-])c3cccc1c23"
category = "YES"


Consider the record given below.
Problem: Criterion: BMDU, Hill model strictly below 4 µg/mL. Is it met by CCN(N=O)C(N)=O ?
Solution: NO

###

System: MutaMouse primary hepatocytes (PHs)
experimentSummary: MutaMouse PH in vitro gene mutation assay (lacZ mutant frequency, P-Gal positive selection)
particulars: 6 h exposure, 72 h sampling, no exogenous S9
propertyLabel: Response in MutaMouse PH gene mutation assay

[[record]]
compound = "OC[C@@H](O)[C@@H](O)[C@H](O)[C@H](O)CO [D‐Mannitol]"
reportedresult = "Negative"

[[record]]
compound = "CC1(C)S[C@@H]2[C@H](NC(=O)[C@H](N)c3ccccc3)C(=O)N2[C@H]1C(=O)O [Ampicillin trihydrate]"
reportedresult = "Negative"

[[record]]
compound = "CN(C)N=O [DMN, dimethylnitrosamine]"
reportedresult = "positive responses"

[[record]]
compound = "Cn1c(N)nc2ncc(-c3ccccc3)cc21 [PhIP]"
reportedresult = "positive responses"

[[record]]
compound = "CC(=O)Nc1ccc2c(c1)Cc1ccccc1-2 [2‐AAF, 2‐acetylaminofluorene]"
reportedresult = "positive responses"


Next:
Problem: Would you mind telling me what Response in MutaMouse PH gene mutation assay value was observed for CC(C)(C)c1cc(O)ccc1O [TBHQ, tertiary butylhydroquinone] ?
Solution: Negative

###

System: MutaMouse primary hepatocytes (PHs)
experimentSummary: MutaMouse PH in vitro gene mutation assay (lacZ mutant frequency, P-Gal positive selection)
particulars: BMR 100% (twofold MF increase), PROAST covariate analysis
Checkbox rule: BMD100, Exponential model lower than 2 µg/mL = true; BMD100, Exponential model not lower than 2 µg/mL = false.

[[record]]
smilesentry = "CN(C)N=O"
testedsystem = "MutaMouse primary hepatocytes (PHs)"
category = "false"

[[record]]
smilesentry = "Cn1c(N)nc2ncc(-c3ccccc3)cc21"
testedsystem = "MutaMouse primary hepatocytes (PHs)"
category = "false"

[[record]]
smilesentry = "CCN(N=O)C(N)=O"
testedsystem = "MutaMouse primary hepatocytes (PHs)"
category = "false"

[[record]]
smilesentry = "CC(=O)Nc1ccc2c(c1)Cc1ccccc1-2"
testedsystem = "MutaMouse primary hepatocytes (PHs)"
category = "true"


Consider the record given below.
Problem: Criterion: BMD100, Exponential model strictly below 2 µg/mL. Is it met by O=C1c2ccccc2-c2ccc([N+](=O)[O-])c3cccc1c23 ?
Solution: true

###

Tested on: MutaMouse primary hepatocytes (PHs)
experimentSummary: MutaMouse PH in vitro gene mutation assay (lacZ mutant frequency, P-Gal positive selection)
particulars: lower limit of 90% confidence interval of BMD100
Checkbox rule: BMDL, Hill model lower than 1 µg/mL = T; BMDL, Hill model not lower than 1 µg/mL = F.

The examples below pair each entry with its known result.
[[record]]
smilesentry = "O=C1c2ccccc2-c2ccc([N+](=O)[O-])c3cccc1c23"
category = "T"

[[record]]
smilesentry = "Cn1c(N)nc2ncc(-c3ccccc3)cc21"
category = "F"

[[record]]
smilesentry = "CN(C)N=O"
category = "F"

[[record]]
smilesentry = "CC(=O)Nc1ccc2c(c1)Cc1ccccc1-2"
category = "T"


Consider the record given below.
Problem: Criterion: BMDL, Hill model strictly below 1 µg/mL. Is it met by CCN(N=O)C(N)=O ?
Solution: F

Cited source: paper PMC6593967
